# Study system: soybean lipoxygenase (Glycine max)
# Construct: purchased Sigma (St. Louis, MO, USA)
# Sequence (P08170 whole entry): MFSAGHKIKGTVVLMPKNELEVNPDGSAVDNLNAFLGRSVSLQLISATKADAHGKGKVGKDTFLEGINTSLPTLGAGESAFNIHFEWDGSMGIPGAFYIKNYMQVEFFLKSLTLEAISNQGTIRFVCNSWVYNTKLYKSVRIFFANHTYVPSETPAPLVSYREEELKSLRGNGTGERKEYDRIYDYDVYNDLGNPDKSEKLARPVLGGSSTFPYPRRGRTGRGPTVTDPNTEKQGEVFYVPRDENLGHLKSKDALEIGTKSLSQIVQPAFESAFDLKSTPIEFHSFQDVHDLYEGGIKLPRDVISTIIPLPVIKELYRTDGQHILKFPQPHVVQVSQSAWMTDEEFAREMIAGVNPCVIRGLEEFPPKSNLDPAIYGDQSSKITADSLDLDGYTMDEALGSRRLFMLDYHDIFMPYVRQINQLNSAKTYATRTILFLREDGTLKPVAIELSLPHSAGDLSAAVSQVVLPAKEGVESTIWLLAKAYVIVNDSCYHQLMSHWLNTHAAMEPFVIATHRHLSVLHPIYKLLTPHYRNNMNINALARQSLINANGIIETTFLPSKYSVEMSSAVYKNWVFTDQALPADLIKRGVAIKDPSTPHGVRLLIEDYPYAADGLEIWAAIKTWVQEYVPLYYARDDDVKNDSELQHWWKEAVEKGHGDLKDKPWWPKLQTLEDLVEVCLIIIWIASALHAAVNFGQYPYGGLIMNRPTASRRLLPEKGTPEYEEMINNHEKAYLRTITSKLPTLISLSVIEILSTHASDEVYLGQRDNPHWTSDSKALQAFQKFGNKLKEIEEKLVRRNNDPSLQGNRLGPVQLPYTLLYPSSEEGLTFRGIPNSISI
# Protocol: Soybean lipoxygenase inhibition
# Assay type: biochemical
inhibition at 100 µM by entry:
Respond numerically; units are % and should not be typed.

Compound	inhibition at 100 µM / %
COC(=O)CCCNC(=O)C1CCCN1C(=O)C1(C)CCc2c(C)c(O)c(C)c(C)c2O1 (centres unmarked) [Compound 5c]	26
COC(=O)CCCNC(=O)C1CCCN1C(=O)/C=C/c1ccc(OC)c(OC)c1 (centres unmarked) [Compound 3c]	32
COC(=O)CCCNC(=O)C1CCCN1C(=O)/C=C/c1ccccc1 (centres unmarked) [Compound 4c]	40
COC(=O)CCCNC(=O)C1CCCN1C(=O)/C=C/c1ccc(O)c(OC)c1 (centres unmarked) [Compound 1c]	36

--- query ---
Lab note: measured inhibition at 100 µM of COC(=O)CCCNC(=O)C1CCCN1C(=O)/C=C/c1cc(OC)c(O)c(OC)c1 (centres unmarked) [Compound 2c] was 40

---

# Study system: acetylcholinesterase (Rattus norvegicus)
# Sequence (P37136 32-614): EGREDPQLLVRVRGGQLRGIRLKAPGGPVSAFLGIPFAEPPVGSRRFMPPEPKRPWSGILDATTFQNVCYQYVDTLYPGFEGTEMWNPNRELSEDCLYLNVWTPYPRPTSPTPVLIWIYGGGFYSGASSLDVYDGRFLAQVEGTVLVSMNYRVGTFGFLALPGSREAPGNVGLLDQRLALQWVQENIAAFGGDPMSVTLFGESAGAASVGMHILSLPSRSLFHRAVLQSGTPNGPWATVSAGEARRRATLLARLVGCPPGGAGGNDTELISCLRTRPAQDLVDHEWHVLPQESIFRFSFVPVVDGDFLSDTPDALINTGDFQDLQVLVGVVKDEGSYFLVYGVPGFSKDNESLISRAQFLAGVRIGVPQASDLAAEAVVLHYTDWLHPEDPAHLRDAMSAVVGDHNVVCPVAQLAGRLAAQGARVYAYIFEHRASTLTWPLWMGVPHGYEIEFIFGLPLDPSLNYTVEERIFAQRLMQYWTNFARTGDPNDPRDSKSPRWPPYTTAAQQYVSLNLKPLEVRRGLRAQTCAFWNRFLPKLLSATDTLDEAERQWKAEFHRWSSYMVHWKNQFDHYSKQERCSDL
Outcome measure: IC50
Answer shape: numeric part, then the unit.

Compound	Study system	IC50
COC(=O)CCCNC(=O)C1CCCN1C(=O)/C=C/c1ccc(OC)c(OC)c1 (stereo not drawn)	acetylcholinesterase (Rattus norvegicus)	284 µM
COC(=O)CCCNC(=O)C1CCCN1C(=O)/C=C/c1ccc(O)c(OC)c1 (stereo not drawn)	acetylcholinesterase (Rattus norvegicus)	219 µM

Lab note: measured IC50 of COC(=O)CCCNC(=O)C1CCCN1C(=O)/C=C/c1cc(OC)c(O)c(OC)c1 (stereo not drawn) was 298 µM
